- target_or_system: OR8/OR7 (Anopheles gambiae, UniProt Q7PUT5+Q7QCC7)
- Sequence (Q7QCC7 whole entry): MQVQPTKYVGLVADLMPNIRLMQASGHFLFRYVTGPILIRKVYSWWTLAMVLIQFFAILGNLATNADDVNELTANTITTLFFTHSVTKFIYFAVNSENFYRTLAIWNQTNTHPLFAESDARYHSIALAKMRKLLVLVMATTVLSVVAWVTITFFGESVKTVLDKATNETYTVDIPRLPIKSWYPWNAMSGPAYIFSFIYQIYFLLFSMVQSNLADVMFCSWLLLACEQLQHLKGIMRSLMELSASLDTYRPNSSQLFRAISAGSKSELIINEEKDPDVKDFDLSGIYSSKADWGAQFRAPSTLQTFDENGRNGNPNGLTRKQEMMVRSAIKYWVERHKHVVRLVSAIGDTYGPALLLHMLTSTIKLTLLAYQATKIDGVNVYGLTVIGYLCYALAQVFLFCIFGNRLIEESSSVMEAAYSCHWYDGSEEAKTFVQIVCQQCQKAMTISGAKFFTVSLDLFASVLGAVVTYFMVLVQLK
- Sequence (Q7PUT5 entry or part of it): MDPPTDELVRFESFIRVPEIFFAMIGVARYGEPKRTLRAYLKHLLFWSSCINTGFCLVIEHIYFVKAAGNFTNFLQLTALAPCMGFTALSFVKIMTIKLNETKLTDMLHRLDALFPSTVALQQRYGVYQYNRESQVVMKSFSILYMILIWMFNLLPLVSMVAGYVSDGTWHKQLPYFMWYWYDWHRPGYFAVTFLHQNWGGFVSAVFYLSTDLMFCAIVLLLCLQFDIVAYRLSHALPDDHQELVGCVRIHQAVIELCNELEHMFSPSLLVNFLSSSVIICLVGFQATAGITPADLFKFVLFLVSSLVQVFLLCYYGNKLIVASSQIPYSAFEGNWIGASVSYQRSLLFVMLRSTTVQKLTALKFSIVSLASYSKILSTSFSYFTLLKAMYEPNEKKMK
- assay_details: Ca2+-imaging of stable HEK293T cell line OR8/OR7
- Assay type: cell-based
- condition: HEK-293T; compound applied at 4 μM; read-out: Percent Inhibition OR8 OR7
readout: inhibition at 4 µM

- Cc1ccccc1C(=O)N[C@@H]1CCCCC1NC(=O)C1CCN(C(=O)c2ccc(C(C)(C)C)cc2)CC1 (stereo partly drawn): 26 to 50%
- CCCCCCCC(=O)N1CCCC(C(=O)NC2CCCC[C@H]2NC(=O)c2ccccc2C)C1 (stereo partly drawn): < 25%
- CCN(C)c1onc(-c2ccccc2)c1CN(CCCOC)C(=O)c1ccco1: < 25%
- CCN(CC)C(=O)Oc1ccc2c(ccn2Cc2cccc(C)c2)c1NC(=O)[C@H](C)OC(C)=O: < 25%
- O=C(c1cccc(F)c1)N(Cc1c(-c2ccccc2)noc1N1CCCC1)CC1CCCO1 (stereo not drawn): 51 to 74%
- CCc1cc(N2CCCC2)nc(SCc2ccc(C(=O)N3CCOCC3)o2)n1: 26 to 50%

###

- target_or_system: OR28/OR7 (Anopheles gambiae, UniProt A0A1S4GFY3+Q7QCC7)
- Sequence (A0A1S4GFY3 entry or part of it, one chain of several): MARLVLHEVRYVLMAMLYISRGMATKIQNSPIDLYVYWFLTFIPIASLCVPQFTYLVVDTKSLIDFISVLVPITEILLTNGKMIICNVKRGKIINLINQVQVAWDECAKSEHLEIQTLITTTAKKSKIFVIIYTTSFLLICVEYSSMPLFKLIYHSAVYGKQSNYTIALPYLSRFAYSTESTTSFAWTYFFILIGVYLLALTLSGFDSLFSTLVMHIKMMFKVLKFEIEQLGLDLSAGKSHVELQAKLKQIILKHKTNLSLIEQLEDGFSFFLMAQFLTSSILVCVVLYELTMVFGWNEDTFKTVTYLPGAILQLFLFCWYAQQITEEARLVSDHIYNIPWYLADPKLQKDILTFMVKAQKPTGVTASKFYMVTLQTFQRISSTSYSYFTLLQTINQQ
- assay_details: Ca2+-imaging of stable HEK293T cell line OR28/OR7
- Type: cell-based
- condition: HEK-293T; compound applied at 4 μM; read-out: Percent Inhibition OR28 OR7
inhibition at 4 µM values, listed per item
readout: inhibition at 4 µM

• CCN(CC)c1onc(-c2ccc(F)cc2)c1CN(CCCOC)C(=O)c1ccc2c(c1)OCO2 = > 75%
• COCCCN(CC(=O)N1CCc2sccc2C1c1ccc(OC)cc1)C(=O)C(C)(C)CCl (stereo not drawn) = > 75%
• COCCNC(=O)c1ccc(CSc2nnc(-c3ccc(C)cc3)n2-c2ccccc2F)cc1 = 51 to 74%
• COc1ccccc1CC(=O)N1CCOC(COc2ccc(C)cc2)C1 (stereo not drawn) = > 75%
• Cc1ccccc1C(=O)N[C@@H]1CCCCC1NC(=O)C1CCN(C(=O)c2ccc(C(C)(C)C)cc2)CC1 (stereo partly drawn) = > 75%
• CCOC(=O)CCC(=O)N(CCc1ccccc1)CC(=O)Nc1cc(C(C)(C)C)nn1-c1ccccc1C = > 75%
• C=CCN(Cc1nccn1Cc1ccc(Cl)c(Cl)c1)C(=O)c1ccccc1F = > 75%
• COc1ccccc1C(=O)C1CCCN(C(=O)c2cccc(N3CCOCC3)c2)C1 (stereo not drawn) = > 75%
• COCCCN(CC(=O)N1CCc2sccc2C1COc1cccc(OC)c1)C(=O)Cc1ccccc1 (stereo not drawn) = 51 to 74%
• Cc1cccc(Cn2ccnc2CN(C(=O)c2ccccc2F)C2CCCCC2)c1 = 26 to 50%
• CN(Cc1ccccc1)C(=O)CCC1CCN(C(=O)CCOc2ccccc2)CC1 = > 75%
• c1ccc(CNc2nc(NCc3ccco3)nc(N3CCOCC3)n2)cc1 = > 75%

###

- target_or_system: serotonin receptor (5HT3) (Mus musculus)
- Construct: Full-length cDNAs for mosquito (Anopheles gambiae) odorant receptor; expressed in transfected cells
- Sequence (P23979 24-489): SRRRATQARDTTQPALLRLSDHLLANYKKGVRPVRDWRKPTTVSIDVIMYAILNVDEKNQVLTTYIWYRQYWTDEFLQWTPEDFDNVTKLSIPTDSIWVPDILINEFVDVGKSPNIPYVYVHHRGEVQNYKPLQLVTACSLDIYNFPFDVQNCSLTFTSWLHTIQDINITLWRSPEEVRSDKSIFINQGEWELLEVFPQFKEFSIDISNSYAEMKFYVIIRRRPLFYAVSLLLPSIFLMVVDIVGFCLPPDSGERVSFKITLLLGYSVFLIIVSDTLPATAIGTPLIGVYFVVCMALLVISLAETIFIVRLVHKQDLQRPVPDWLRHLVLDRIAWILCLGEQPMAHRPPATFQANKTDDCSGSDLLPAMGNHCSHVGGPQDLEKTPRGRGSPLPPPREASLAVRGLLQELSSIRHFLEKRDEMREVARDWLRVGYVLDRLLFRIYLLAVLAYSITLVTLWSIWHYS
- assay_details: Ca2+-imaging of stable Flip-In T-Rex cell line 5HT3
- Assay type: cell-based
- condition: compound applied at 4 μM; read-out: Percent Inhibition 5HT3
readout: inhibition at 4 µM

• CCOC(=O)C1CCCN(C(=O)c2csc(CSc3nnc(-c4cccc(OC)c4)n3-c3ccc(C)cc3)n2)C1 (stereo not shown) = 26 to 50%
• COCCN(Cc1c(-c2ccccc2)noc1N1CCSCC1)CC(O)COCc1ccco1 (stereo not shown) = 26 to 50%
• CC(C)CN(Cc1nccn1Cc1ccc(Cl)cc1Cl)C(=O)c1ccccc1F = < 25%
• COc1cccc(NC(=O)CCC2CCN(C(=O)CSc3ccccc3)CC2)c1 = < 25%
• CCOCCCN(CC(=O)N(Cc1ccc2c(c1)OCO2)Cc1sccc1C)C(=O)NC(C)(C)C = < 25%
• C=CCN(Cc1nccn1Cc1ccc(Cl)c(Cl)c1)C(=O)c1ccccc1F = < 25%
• N#Cc1ccccc1C(=O)N1CCOC(COCc2c(Cl)cccc2Cl)C1 (stereo not shown) = < 25%
